All values here come from paper PMC5540273.

- Tested on: DCAMKL3
- Construct: gene DCLK3
- runParameters: concentration: 1 μM, replicates: in singlicate; n = 1;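 note: KINOMEscan kinase panel screen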
So I've got a bunch of compounds here, and I need their %Inh values.
The reply should contain only the number, in %.

**Q:** Given the compound Cc1ccc(F)c(C(=O)Nc2cccc(-c3nn4ccccc4c3-c3ccnc(Nc4cccc(F)c4)n3)c2)c1F , what is its reported %Inh?
**A:** 70

**Q:** Any idea what its %Inh is? The compound is O=C(Nc1n[nH]c2nc(-c3ccc(O)cc3)ccc12)C1CC1
**A:** 76

**Q:** GET /values?readout=%Inh&item= Cc1ccc(S(=O)(=O)Nc2ccc(Nc3nccc(Nc4cccc5[nH]ncc45)n3)cc2)cc1
**A:** 21

* * *

- Tested on: HPK1
- runParameters: concentration: 1 μM, replicates: in singlicate; n = 1
For each record, write down the corresponding %Inh.
Kindly provide the numeric value in % only, without the unit symbol.

**Q:** Report %Inh for O=C(Nc1cccc(Oc2ccc3nc(NC(=O)C4CC4)cn3n2)c1)c1ccccc1C(F)(F)F tested on HPK1.
**A:** 10

**Q:** So what %Inh did Cl.Cl.NCC(C(=O)Nc1cc(Br)c(-c2ccnc3[nH]ccc23)s1)c1ccccc1 (stereo not shown) get with HPK1?
**A:** 41

**Q:** What %Inh appears in the records for this molecule with HPK1? Cl.c1ccc(-c2ccc3c(Nc4ccc5[nH]ncc5c4)ccnc3c2)nc1
**A:** 23

**Q:** Give the reported %Inh for Nc1ncc(-c2ccc3nccc(-c4ccncc4)c3c2)cc1S(=O)(=O)N1CCOCC1 (system: HPK1).
**A:** 49

**Q:** What value of %Inh on HPK1 does CN(C)Cc1ccc(-c2ccc3c(Nc4ccc(Oc5ccccn5)cc4)ccnc3c2)o1 have?
**A:** 0

**Q:** Return %Inh measured with HPK1 given this molecule: CSc1cccc2c(-c3ccncn3)c(-c3ccc(F)cc3)nn12
**A:** 21

**Q:** Enter reported %Inh observed with HPK1 for Oc1cc(Nc2ccnc3cc(I)ccc23)ccc1F
**A:** 37

**Q:** Item: O=C(Nc1n[nH]c2nc(-c3ccc(O)cc3)ccc12)C1CC1 Test system: HPK1 Read-out: %Inh Value: ?
**A:** 17

**Q:** Give %Inh (HPK1) of the following molecule: CN(C)S(=O)(=O)c1cc(-c2ccc3nccc(-c4cccc(S(N)(=O)=O)c4)c3c2)cnc1N
**A:** 41

**Q:** Under HPK1: %Inh value of O=C(Nc1cccc(-c2nn3ccccc3c2-c2ccnc(Nc3cccc(C(F)(F)F)c3)n2)c1)c1c(F)cccc1F ?
**A:** 21

* * *

- Test system: BMPR2
- runParameters: concentration: 1 μM, replicates: in singlicate; n = 1
Answer each item with its documented %Inh.
State the value with its unit after it.

**Q:** // %Inh lookup, key: CC(=O)Nc1nc2cnc(Nc3cc(NC(=O)c4cccc(C5(C#N)CC5)c4Cl)ccc3C)nc2s1
**A:** 2%

**Q:** Report %Inh for CN(c1ccc(NC(=O)Nc2cc(C(F)(F)F)ccc2F)cc1)c1ccnc(Nc2ccc(S(N)(=O)=O)cc2)n1 please.
**A:** 78%

**Q:** Sample O=C(Nc1cccc(-c2nn3ncccc3c2-c2ccnc(Nc3ccccc3)n2)c1)c1c(F)cccc1F — what was its %Inh?
**A:** 0%

**Q:** Query: %Inh; subject: c1ccc(-c2n[nH]cc2Nc2ccnc3ccccc23)nc1
**A:** 47%

**Q:** Please give the measured %Inh for this compound: Nc1ncc(-c2ccc3nccc(-c4ccncc4)c3c2)cc1S(=O)(=O)N1CCOCC1
**A:** 0%

**Q:** What value of %Inh has been reported for the following compound? COc1cccc(-c2ccc3c(NC(=O)C4CC4)n[nH]c3n2)c1
**A:** 44%

**Q:** Item O=C(Nc1n[nH]c2nc(-c3ccc(O)cc3)ccc12)C1CC1 has what recorded %Inh?
**A:** 16%

**Q:** Which %Inh is listed for COc1cc(Nc2nccc(N3CCC(NC(=O)Nc4cccc(C(C)=O)c4)C3)n2)cc(OC)c1OC (centres unmarked) ?
**A:** 9%

* * *

- System: CDK2
- runParameters: concentration: 1 μM, replicates: in singlicate; n = 1
Provide the reported %Inh of each item.
Please state the figure in %; there is no need to write the unit.

**Q:** Param readout= %Inh; system= CDK2; entry= Cl.NC(=O)c1cccc(Nc2nccc(Nc3ccc(Oc4c(Cl)cccc4Cl)c(Cl)c3)n2)c1 ; returns value.
**A:** 0

**Q:** I'm curious: which %Inh was measured for CC(=O)N1CCN(c2ccc(Nc3nccc(-c4sc(C(C)C)nc4-c4cccc(NS(=O)(=O)c5cccc(Cl)c5)c4)n3)cn2)CC1 tested on CDK2?
**A:** 97.1

**Q:** Request: %Inh, test system CDK2, entry O=C(NC1CCN(c2ccnc(Nc3ccc(F)cc3)n2)C1)c1cc2ccccc2s1 (centres unmarked)
**A:** 0

**Q:** Could you share what %Inh was measured for COc1cc(Nc2nccc(N3CCC(NC(=O)Nc4cccc(C(C)=O)c4)C3)n2)cc(OC)c1OC (centres unmarked) , tested on CDK2?
**A:** 0

**Q:** Record COc1cccc(-c2ccc3c(NC(=O)C4CC4)n[nH]c3n2)c1 : what is its %Inh with CDK2?
**A:** 33

**Q:** Request: %Inh, test system CDK2, entry Oc1cc(Nc2ccnc3cc(I)ccc23)ccc1F
**A:** 0

**Q:** Provide value of %Inh for this record tested with CDK2: Cc1ccc(F)c(C(=O)Nc2cccc(-c3nn4ccccc4c3-c3ccnc(Nc4cccc(F)c4)n3)c2)c1F
**A:** 11

**Q:** Recall the recorded %Inh for CC(=O)Nc1nc2cnc(Nc3cc(NC(=O)c4cccc(C5(C#N)CC5)c4Cl)ccc3C)nc2s1 with CDK2 and state it.
**A:** 0

* * *

I'd appreciate it if you could supply %Inh values for the items below.
- Test system: ERK5
- Construct: gene MAPK7
- runParameters: concentration: 1 μM, replicates: in singlicate; n = 1
A number alone suffices; assume %.

**Q:** Fill in the blank: the reported %Inh of Oc1cc(Nc2ccnc3cc(I)ccc23)ccc1F [GW552771] is ____.
**A:** 0

**Q:** Please look up its %Inh: NCCCC(NC(=O)c1cc(Br)c(-c2ccnc3[nH]ccc23)s1)c1ccccc1.O=C(O)C(F)(F)F.O=C(O)C(F)(F)F (centres unmarked) [GSK1287544]
**A:** 0

**Q:** Need %Inh, item CCn1c(-c2nonc2N)nc2c(C#CC(C)(C)O)nc(OC[C@H](N)c3ccccc3)cc21 [GSK943949]
**A:** 0

**Q:** Need %Inh, item Cc1ccc(F)c(C(=O)Nc2cccc(-c3nn4ccccc4c3-c3ccnc(Nc4cccc(F)c4)n3)c2)c1F [GSK361061]
**A:** 0

**Q:** // returns reported %Inh for input CC(C)c1nc(-c2cccc(NS(=O)(=O)c3c(F)cccc3F)c2F)c(-c2ccnc(Nc3ccc(N4CCOCC4)nc3)n2)s1 [GSK2008607]
**A:** 2

**Q:** Which value of %Inh has been reported for Cc1ccc(C(=O)N2CC[C@@H](O)C2)cc1-n1c(C)cc(OCc2ccc(F)cc2F)c(Br)c1=O in the records?
**A:** 0

**Q:** Tell me the measured %Inh of Cc1ccc(C(=O)Nc2ccc(Nc3ccnc4cc(-c5nccs5)ccc34)cc2O)cc1.Cl [GW494702] , please.
**A:** 0

**Q:** Need %Inh of COc1cccc(C2=C(Nc3ccc(Cl)c(C(=O)O)c3)C(=O)NC2=O)c1 [SB-390769] , thanks.
**A:** 0

**Q:** Given the compound FC(F)(F)c1ccc(/C=C/c2cncnc2Nc2ccc3[nH]c(Cc4ccccc4)nc3c2)cc1 [GW709199] , what is its reported %Inh?
**A:** 12

**Q:** Which %Inh value is on record for CN1CCN(CCCNc2nccc(-c3c(-c4ccc(F)cc4)nn4cc(C(F)(F)F)ccc34)n2)CC1 [GW621581] ?
**A:** 0

**Q:** Need %Inh, item Fc1ccc(-c2ncn(C3CCNCC3)c2-c2ccnc(Oc3ccc(-c4ccccc4)cc3)n2)cc1 [SB-245391]
**A:** 9

**Q:** Query: %Inh; subject: Clc1ccc(-c2nn3ncccc3c2-c2ccnc(Nc3ccc4c(c3)OCCO4)n2)cc1 [GW829116]
**A:** 0

**Q:** Can you share its %Inh? I mean this compound: O=C(Nc1n[nH]c2cc(-c3ccoc3)ccc12)C1CC1 [SB-738481]
**A:** 0

**Q:** Data request, read-out %Inh, for COc1cccc(-c2ccc3c(NC(=O)C4CC4)n[nH]c3n2)c1 [SB-710903]
**A:** 0

**Q:** Quick one: %Inh of COc1ccc(Nc2nccc(N3CCC(NC(=O)Nc4cccc(OC)c4)C3)n2)cc1 (centres unmarked) [GSK1379742] ?
**A:** 0

**Q:** // query %Inh value for entry COC(=O)Nc1nc2ccc(Oc3ccc(NC(=O)Nc4cc(C(F)(F)F)ccc4F)cc3)cc2n1C.Cl [GW692089]
**A:** 0

**Q:** Which %Inh value is on record for O=C(Nc1ccccc1F)NC1CCN(c2ccnc(Nc3ccc(F)cc3)n2)CC1 [GSK1379800] ?
**A:** 0
